These data points were gathered from patent US20230129485A1.

# ASSAY INFO: Free energy of hydration by COSMO implicit solvent model (MolPro ver. 2012)
# MEASUREMENT PARAMETERS: absolute error vs Exp (hydration)
# label = satisfied if COSMO/Molpro Error >= 3 kcal/mol else not satisfied

Worked set:
CCCOC(C)=O [PropylAcetate]	satisfied
c1ccc(-c2ccccc2)cc1 [Biphenyl]	not satisfied
CO [Methanol]	not satisfied
CCS [EthaneThiol]	not satisfied
CCCCCC [Hexane]	satisfied

Qu. Quick check, COSMO/Molpro Error >= 3 kcal/mol? c1ccc2ccccc2c1 [Napthalene]
Ans. not satisfied

Qu. Please check the record CCC(C)O (stereo not shown) [2-Butanol] and state if its COSMO/Molpro Error is at or above 3 kcal/mol.
Ans. not satisfied

Qu. Does CCSCC [DiEthylSulfide] have a reported COSMO/Molpro Error of at least 3 kcal/mol?
Ans. satisfied

Qu. Given CC(C)=O [Acetone] , state whether its COSMO/Molpro Error is at least 3 kcal/mol.
Ans. satisfied

Qu. Entry Cc1cccc(O)c1 [m-cresol] : is its COSMO/Molpro Error no less than 3 kcal/mol?
Ans. satisfied

Qu. # bool: COSMO/Molpro Error of Cc1ccccc1 [Toluene] >= 3 kcal/mol
Ans. not satisfied

Qu. Record c1cc2ccc3cccc4ccc(c1)c2c34 [pyrene] ; criterion: COSMO/Molpro Error no lower than 3 kcal/mol. Met?
Ans. not satisfied

Qu. Entry Cc1ccccc1O [o-cresol] : is its COSMO/Molpro Error no less than 3 kcal/mol?
Ans. not satisfied

Qu. Would you say CC(=O)O [AceticAcid] shows COSMO/Molpro Error at minimum 3 kcal/mol?
Ans. not satisfied

Qu. Is reported COSMO/Molpro Error greater than or equal to 3 kcal/mol here: CC(C)(C)O [2-Methyl-2-Propanol]
Ans. not satisfied

###

# ASSAY INFO: CHEX/H2O partition coefficient (log D) predicted with the QM-parameterized force field model (ARROW FF)
Reported logD Arrow MD Error values are given for each entry in this list.
# print the numeric value only

// logD Arrow MD Error lookup, compound = C [Methane] , result: 0.25

###

# ASSAY INFO: Free energy of hydration predicted by polarizable AMOEBA force field, from literature
# MEASUREMENT PARAMETERS: Table 5; error of AMOEBA hydration free energy vs experiment
# AMOEBA error >= 0.4 kcal/mol gives true (1), anything below gives false (0)

c1c[nH]cn1	true (1)
CCC=O	false (0)
CNC	true (1)
CO	false (0)
Oc1ccccc1	true (1)
COC	false (0)
CS	true (1)
c1ccccc1	false (0)
CCC	false (0)
c1cc[nH]c1	true (1)

Qu. Answer whether AMOEBA error of CCCCCCCCO is greater than or equal to 0.4 kcal/mol.
Ans. true (1)

Qu. Exam item: decide whether the reported AMOEBA error for CCCCCCCC is at least 0.4 kcal/mol.
Ans. true (1)

###

# ASSAY INFO: Free energy of hydration predicted with the QM-parameterized force field model (ARROW FF), classical MD and PIMD simulation in a water box
# MEASUREMENT PARAMETERS: absolute error vs Exp (hydration)
READOUT: Arrow PIMD8 Error (kcal/mol)
Please give a number only; it is taken to be in kcal/mol.

CCCCOC(C)=O [ButylAcetate]	0.07

Documented Arrow PIMD8 Error of CC(C)C : 0.02

So for CNC(C)=O [N-Methylacetamide] , the logged Arrow PIMD8 Error turned out to be 0.49

response.value for CCCCCO (field: Arrow PIMD8 Error) = 0.05

compound Nc1ccccc1 , Arrow PIMD8 Error observed: 0.06

Notebook: C , Arrow PIMD8 Error read as 0.09

Per the records, this compound ( CCSCC [DiEthylSulfide] ) has Arrow PIMD8 Error equal to 0.12

Looking up Cc1ccccc1 , I see its Arrow PIMD8 Error listed as 0.10

Looking up CCCCN , I see its Arrow PIMD8 Error listed as 0.28

The reported Arrow PIMD8 Error of the compound c1ccncc1 was 0.08

Short answer for CCO : Arrow PIMD8 Error was 0.07

// Arrow PIMD8 Error lookup, compound = C1CCCCCC1 , result: 0.12

###

# ASSAY INFO: Free energy of hydration by Solvation Model Dielectric (SMD) implicit solvent model
# MEASUREMENT PARAMETERS: absolute error vs Exp (hydration)
Here, each record is paired with measured SMD Error data.
The reply should read as a number followed by its unit.

Recorded SMD Error, per entry:
C=C [Ethene]	0.12 kcal/mol
C [Methane]	0.24 kcal/mol
C1CCCC1 [Cyctopentane]	0.10 kcal/mol
COC [DiMethylEther]	1.31 kcal/mol
C=CCCC [pent-1-ene]	0.28 kcal/mol
CCCCN [butanamine]	0.74 kcal/mol
CCC=O [propionaldehyde]	0.33 kcal/mol
CCC(=O)O [propionicacid]	0.96 kcal/mol

Lab note: CSC [DiMethylSulfide] gave SMD Error of 1.24 kcal/mol

Entry O [Water] ; SMD Error = 1.70 kcal/mol

Kindly note the recorded SMD Error for CC(C)O [2-Propanol] , which is 0.32 kcal/mol

Looking up C=CC=C [Buta-13-diene] , I see its SMD Error listed as 0.29 kcal/mol

Lab book: SMD Error of CC(=O)O [AceticAcid] noted as 0.99 kcal/mol

Per the records, this compound ( CCC(=O)OC [MethylPropionate] ) has SMD Error equal to 0.23 kcal/mol

Sure, the documented SMD Error for CN(C)C [trimethylamine] is 0.70 kcal/mol

GET /value?item= CCCC(=O)O [butyricacid] &field=SMD Error returns 0.95 kcal/mol

CCOCC [DiethylEther] has a reported SMD Error of 0.55 kcal/mol

###

# ASSAY INFO: Free energy of hydration predicted with the QM-parameterized force field model (ARROW FF), classical MD and PIMD simulation in a water box
# MEASUREMENT PARAMETERS: Table 4; error of MD hydration free energy vs experiment
The following compounds are shown together with reported water Arrow MD Error values.
For clarity, give the value followed by its unit.

Solved entries:
CCC(=O)O [propionicacid]	0.24 kcal/mol
CC(C)C [Isobutane]	0.93 kcal/mol
CC(=O)O [AceticAcid]	0.19 kcal/mol

The compound listed as CCO [Ethanol] shows water Arrow MD Error equal to 0.74 kcal/mol

Notebook: CO [Methanol] , water Arrow MD Error read as 0.28 kcal/mol

Consider Cc1c[nH]cn1 [Methylimidazole (His)] . Its measured water Arrow MD Error is 0.40 kcal/mol

Value of measured water Arrow MD Error for the entry CCCCN [butanamine] : 1.17 kcal/mol

The recorded water Arrow MD Error for entry CCSC [EthylMethylSulfide] equals 0.47 kcal/mol

Notebook: CCCC [Butane] , water Arrow MD Error read as 0.70 kcal/mol

Given item Cc1c[nH]c2ccccc12 [3-methyl-indole] , the value recorded as its water Arrow MD Error is 2.00 kcal/mol

get_value(item= CCC [Propane] , readout=water Arrow MD Error) returns 0.66 kcal/mol

###

# ASSAY INFO: Free energy of hydration predicted with the QM-parameterized force field model (ARROW FF), classical MD and PIMD simulation in a water box
# MEASUREMENT PARAMETERS: Table 3; absolute error of MD hydration free energy vs experiment
Each entry gets Not fulfilled if its water Arrow MD Error stays under 0.8 kcal/mol, and Fulfilled if its water Arrow MD Error is 0.8 kcal/mol or above.

Answered examples (6):
CCC(C)=O	Not fulfilled
C1CCCC1	Not fulfilled
CNC(C)=O [N-Methylacetamide]	Fulfilled
CC(C)(C)C	Fulfilled
Cc1cccc(O)c1	Fulfilled
CCCCN	Fulfilled

Qu. Kindly determine if water Arrow MD Error recorded for CCCCOC(C)=O [ButylAcetate] is above or exactly 0.8 kcal/mol.
Ans. Fulfilled

Qu. Threshold query (water Arrow MD Error >= 0.8 kcal/mol) on CCC
Ans. Not fulfilled

Qu. Entry CCCCCC : is its water Arrow MD Error no less than 0.8 kcal/mol?
Ans. Fulfilled

###

# ASSAY INFO: Free energy of hydration by Solvation Model Dielectric (SMD) implicit solvent model
# MEASUREMENT PARAMETERS: absolute error vs Exp (hydration)
# Procedure: Due to unavailability of free energy data for the original COSMO model, the free energies of solvation for the molecule dataset are calculated using MolPro ver. […] The comparisons to other implicit solvent models such as SMD, PCM and COSMO-RS are limited to the overlap of the molecules computed using QM-parameterized force field model. The free energies of hydration as predicted by these implicit solvent models (SMD, PCM) were received.
READOUT: SMD Error (kcal/mol)
State just the number; it will be interpreted in kcal/mol.

CC	0.01

Record CCCCCC . Reported SMD Error: 0.11

Entry CCCCCCCCO ; SMD Error = 0.69

According to the records, this molecule CCCS displays SMD Error of 0.15

# SMD Error of c1ccc2cc3ccccc3cc2c1 = 1.75

Sample CC=O ; SMD Error observed: 0.30

SMD Error measured on Cc1ccccc1O = 1.27

Input C=CCC . Output SMD Error: 0.18

Oc1ccccc1 has a reported SMD Error of 1.42

Form field SMD Error, entry c1ccc2ccccc2c1 : 0.90

SMD Error recorded for this molecule, CCOC(C)=O [EthylAcetate] , is 0.02

// field: SMD Error; key: CCCC ; value = 0.10

get_value(item= CC(C)=O , readout=SMD Error) returns 0.30

Entry under test: CNC . Its SMD Error was 1.10

The measured SMD Error associated with CC(N)=O [Acetamide] reads 0.71

Entry c1ccccc1 ; SMD Error = 0.18
